Assay read-out EC50; system under study: Progesterone receptor (Homo sapiens, UniProt P06401).
Sequence (P06401 whole entry): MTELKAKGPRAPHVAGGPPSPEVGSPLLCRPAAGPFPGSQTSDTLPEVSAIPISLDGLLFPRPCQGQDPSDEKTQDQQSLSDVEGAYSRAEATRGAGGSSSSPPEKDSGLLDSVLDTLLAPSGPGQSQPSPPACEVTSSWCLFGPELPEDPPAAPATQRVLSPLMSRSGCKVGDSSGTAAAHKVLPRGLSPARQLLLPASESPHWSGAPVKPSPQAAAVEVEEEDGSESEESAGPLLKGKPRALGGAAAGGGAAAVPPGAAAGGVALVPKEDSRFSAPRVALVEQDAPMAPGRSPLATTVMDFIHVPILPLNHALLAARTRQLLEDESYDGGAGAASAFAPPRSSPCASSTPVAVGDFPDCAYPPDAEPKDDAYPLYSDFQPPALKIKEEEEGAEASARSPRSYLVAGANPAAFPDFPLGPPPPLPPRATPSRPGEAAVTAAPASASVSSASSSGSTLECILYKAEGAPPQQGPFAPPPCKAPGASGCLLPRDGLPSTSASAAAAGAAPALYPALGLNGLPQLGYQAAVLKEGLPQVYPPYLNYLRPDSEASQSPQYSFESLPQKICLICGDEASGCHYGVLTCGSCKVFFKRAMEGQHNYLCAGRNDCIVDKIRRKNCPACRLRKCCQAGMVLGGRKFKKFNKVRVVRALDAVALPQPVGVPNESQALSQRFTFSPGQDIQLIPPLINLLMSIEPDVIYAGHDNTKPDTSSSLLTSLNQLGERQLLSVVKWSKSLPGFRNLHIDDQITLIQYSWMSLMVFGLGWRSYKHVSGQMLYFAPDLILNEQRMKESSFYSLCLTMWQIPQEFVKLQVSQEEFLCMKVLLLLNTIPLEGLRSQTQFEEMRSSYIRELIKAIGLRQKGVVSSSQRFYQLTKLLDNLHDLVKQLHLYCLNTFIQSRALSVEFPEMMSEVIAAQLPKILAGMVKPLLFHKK
# number only, unit nM dropped from output

{"SMI": "CC1(C)[C@H](O)CC[C@]2(C)[C@@]3(C)c4[nH]c5ccccc5c4C[C@@H]3CC[C@@]12O", "UNIT INFO": "nM", "RESULT NUMBER": 1.1}

Next compound, please.
Lookup: Please give the measured EC50 for this compound: CC1(C)C(=O)CC[C@]2(C)[C@@]3(C)c4[nH]c5ccccc5c4C[C@@H]3CC[C@@]12O
Found: 0.3

====

MEASUREMENT TARGET: Glucocorticoid receptor (Homo sapiens, UniProt P04150)
Sequence (P04150 whole entry): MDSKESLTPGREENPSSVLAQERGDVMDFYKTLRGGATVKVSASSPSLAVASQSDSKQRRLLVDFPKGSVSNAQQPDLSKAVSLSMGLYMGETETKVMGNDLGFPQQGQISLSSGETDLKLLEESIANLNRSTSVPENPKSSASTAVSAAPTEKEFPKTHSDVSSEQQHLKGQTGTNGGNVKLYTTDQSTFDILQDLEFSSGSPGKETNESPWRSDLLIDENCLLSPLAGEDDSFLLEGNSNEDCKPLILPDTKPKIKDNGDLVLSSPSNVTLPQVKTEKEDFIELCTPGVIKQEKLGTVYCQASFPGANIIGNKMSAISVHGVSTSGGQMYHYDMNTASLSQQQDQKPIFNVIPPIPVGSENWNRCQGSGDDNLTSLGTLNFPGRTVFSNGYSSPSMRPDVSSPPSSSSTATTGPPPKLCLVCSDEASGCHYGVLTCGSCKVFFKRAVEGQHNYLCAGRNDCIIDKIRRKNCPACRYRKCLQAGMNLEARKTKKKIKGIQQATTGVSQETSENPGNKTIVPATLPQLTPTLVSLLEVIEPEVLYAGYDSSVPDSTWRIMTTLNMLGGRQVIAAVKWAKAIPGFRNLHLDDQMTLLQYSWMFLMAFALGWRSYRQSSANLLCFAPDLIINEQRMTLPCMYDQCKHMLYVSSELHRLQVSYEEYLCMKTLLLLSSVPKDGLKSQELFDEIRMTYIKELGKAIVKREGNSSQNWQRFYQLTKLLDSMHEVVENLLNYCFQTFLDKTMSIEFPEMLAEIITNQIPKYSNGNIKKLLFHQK
VALUE TYPE: IC50

Lookup: Give Glucocorticoid receptor (Homo sapiens, UniProt P04150) IC50 for CC1(C)[C@H](O)CC[C@]2(C)[C@@]3(C)c4[nH]c5ccccc5c4C[C@@H]3CC[C@@]12O
Found: > 1 µM

====

MEASUREMENT TARGET: Progesterone receptor (Homo sapiens) (UniProt P06401)
Sequence (P06401 whole entry): as the sequence (P06401 whole entry) above
PROTOCOL: Activation of progesterone receptor in human T47D cells after 20 hrs by PRE-tagged luciferase reporter gene assay relative to control
Assay type: cell-based
Efficacy values for the molecules below.

Please review the entries below; each comes with its answer.
{"SMI": "CC1(C)[C@H](O)CC[C@]2(C)[C@@]3(C)c4[nH]c5ccccc5c4C[C@@H]3CC[C@@]12O", "MEASUREMENT TARGET": "Progesterone receptor (Homo sapiens) (UniProt P06401)", "Efficacy": "68%"}
{"SMI": "CO[C@H]1[C@H](O)[C@@H](O)[C@H](Oc2ccc3c4c([nH]c3c2)[C@@]2(C)[C@@H](CC[C@H]3C(C)(C)C(=O)C=C[C@@]32C)C4)O[C@@H]1CO", "MEASUREMENT TARGET": "Progesterone receptor (Homo sapiens) (UniProt P06401)", "Efficacy": "< 1%"}
{"SMI": "CC1(C)C(=O)C=C[C@]2(C)[C@@]3(C)c4[nH]c5ccccc5c4C[C@@H]3CC[C@@]12O", "MEASUREMENT TARGET": "Progesterone receptor (Homo sapiens) (UniProt P06401)", "Efficacy": "< 1%"}

Next molecule, please.
Lookup: Please give the measured Efficacy for this molecule: CC1(C)C(=O)CC[C@]2(C)[C@@]3(C)c4[nH]c5ccccc5c4C[C@@H]3CC[C@@]12O
Found: < 1%

====

pIC50 values for the compounds below.
MEASUREMENT TARGET: Androgen receptor (Homo sapiens, UniProt P10275)
Sequence (P10275 whole entry): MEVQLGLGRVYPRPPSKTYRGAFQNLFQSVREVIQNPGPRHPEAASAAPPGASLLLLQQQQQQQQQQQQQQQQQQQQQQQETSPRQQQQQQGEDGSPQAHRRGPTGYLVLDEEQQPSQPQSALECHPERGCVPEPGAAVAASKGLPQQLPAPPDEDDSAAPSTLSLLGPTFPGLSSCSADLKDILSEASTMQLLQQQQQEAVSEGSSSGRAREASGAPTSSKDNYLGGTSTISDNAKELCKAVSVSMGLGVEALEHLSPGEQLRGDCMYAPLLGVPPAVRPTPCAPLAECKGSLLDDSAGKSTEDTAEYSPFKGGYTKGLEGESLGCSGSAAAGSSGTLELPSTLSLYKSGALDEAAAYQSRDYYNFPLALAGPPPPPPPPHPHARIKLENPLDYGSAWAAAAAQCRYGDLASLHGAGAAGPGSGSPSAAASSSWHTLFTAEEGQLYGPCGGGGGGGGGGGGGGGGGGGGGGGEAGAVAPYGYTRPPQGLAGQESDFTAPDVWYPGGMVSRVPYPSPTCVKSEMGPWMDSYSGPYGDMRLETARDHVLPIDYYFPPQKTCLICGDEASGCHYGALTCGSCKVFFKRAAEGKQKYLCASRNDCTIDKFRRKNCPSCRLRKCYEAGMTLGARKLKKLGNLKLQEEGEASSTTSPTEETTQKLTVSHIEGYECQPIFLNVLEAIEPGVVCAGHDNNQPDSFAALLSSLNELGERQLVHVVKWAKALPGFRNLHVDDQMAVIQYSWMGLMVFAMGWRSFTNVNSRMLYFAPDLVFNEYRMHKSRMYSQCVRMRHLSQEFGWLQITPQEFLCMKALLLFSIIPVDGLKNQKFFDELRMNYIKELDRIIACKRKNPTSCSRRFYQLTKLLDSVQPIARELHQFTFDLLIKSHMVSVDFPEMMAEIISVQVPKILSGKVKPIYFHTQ
pIC50: −log10 of the molar value.

{"SMI": "CC1(C)C(=O)CC[C@]2(C)[C@@]3(C)c4[nH]c5ccccc5c4C[C@@H]3CC[C@@]12O", "pIC50": "< 5.00"}

Next compound, please.
Lookup: Please give the measured pIC50 for this compound: CC1(C)[C@H](O)CC[C@]2(C)[C@@]3(C)c4[nH]c5ccccc5c4C[C@@H]3CC[C@@]12O
Found: < 5.00
